- Test system: T-47D breast
- MEASUREMENT DESCRIPTION: NCI-60 one-dose screen, 48 h
- CONDITION NOTES: 10 µM unless noted
- Description: Growth inhibition of the T-47D human tumor cell line is measured as a screen for anti-cancer activity. Cells are grown in 96 well plates and exposed to the test compound for 48 hours. Compounds are tested at a single concentration, which is 10^-5 M for most compounds. The reported endpoint is percent growth (GI% or GIPRCNT), where numbers from 0 - 100% represent growth inhibition, and numbers from -100% - 0 represent cell death. For example, a value of 40 represents 60% growth inhibition. […]
About 83,000 compounds went through this panel and 20% of them were active in at least one assay; those are over-represented in the sample as a whole. Activity calls are given as the source filed them. The calls were made as follows: active = growth percent below 10; inactive = the rest.
Outcome codes: Yes (active), No (inactive)

- MOLECULE: "C#C[C@]1(O)CC[C@H]2[C@@H]3CC=C4c5sc(Nc6ccncc6)nc5CC[C@]4(C)[C@H]3CC[C@@]21C"
  LABEL CLASS: "No"
- MOLECULE: "N/C(=N\\OC(=O)CSc1nc2ccccc2s1)c1ccc(Cl)cc1"
  LABEL CLASS: "No"
- MOLECULE: "CN(C)C(=O)C1=NC(CO)C(=O)N(c2ccc(Cl)cc2)N1 (stereo not drawn)"
  LABEL CLASS: "No"
- MOLECULE: "CCN1CCN(c2cc(C(=O)Nc3nc4ccc(Oc5ccnc(C(=O)NC)c5)cc4s3)cc(C(F)(F)F)c2)CC1"
  LABEL CLASS: "No"
- MOLECULE: "Cc1ccc(NC(=O)c2ccc(CN3CCN(C)CC3)c(I)c2)cc1Oc1ccc(-c2[nH]nc3ncnc(N)c23)cc1"
  LABEL CLASS: "No"
- MOLECULE: "Cn1cc(-c2nn3c(=O)cc(-c4ccccc4)nc3s2)c2cc(F)ccc21"
  LABEL CLASS: "No"
- MOLECULE: "C#CCOc1ccccc1C(Nc1ccccc1)c1nnnn1C1CCCCC1 (stereo not drawn)"
  LABEL CLASS: "No"
- MOLECULE: "C=C1C(=O)O[C@@H]2/C=C(/C)C3=CC(=O)[C@@](C)(C[C@H](OC(=O)/C(C)=C\\C)[C@@H]12)O3"
  LABEL CLASS: "Yes"
- MOLECULE: "O=C1Nc2ccc(Cl)cc2/C1=C/c1ccc(OCc2ccc(Br)cc2F)cc1"
  LABEL CLASS: "No"
- MOLECULE: "CCOC(=O)C1=C(C)Nc2nc3ccccc3n2C1c1ccccc1 (stereo not drawn)"
  LABEL CLASS: "No"
- MOLECULE: "CC(C)N=C(N/C(N)=N/c1nc2ccccc2s1)NC(C)C"
  LABEL CLASS: "No"
- MOLECULE: "Nc1nc(N)c2c(n1)NC(c1ccc(Cl)cc1)CC(c1ccc(Nc3nc(NCCO)nc(Nc4ccc(Cl)cc4)n3)cc1)=N2 (stereo not drawn)"
  LABEL CLASS: "No"
- MOLECULE: "Cn1c2ccccc2c2c3c(c4c5ccc(Br)cc5oc4c21)C(=O)N(O)C3=O"
  LABEL CLASS: "No"
- MOLECULE: "CC1=CC(=O)CC(C)(C)[C@@]1(O)/C=C/C(C)=C\\C(=O)O"
  LABEL CLASS: "Yes"
- MOLECULE: "O=C1NC(=O)c2c1c1c3ccccc3ccc1c1[nH]c3ccccc3c21"
  LABEL CLASS: "No"
- MOLECULE: "CCOC(=O)c1ccc(N/C=C/C(=O)c2ccccc2)cc1"
  LABEL CLASS: "No"
- MOLECULE: "NC(N)=NS(=O)(=O)c1ccc(N=NC2C(=O)NN(c3ccccc3)C2=O)cc1 (stereo not drawn)"
  LABEL CLASS: "No"
- MOLECULE: "C#C[C@]1(O)CC[C@H]2[C@@H]3CC=C4c5sc(Nc6cccc(C)n6)nc5CC[C@]4(C)[C@H]3CC[C@@]21C"
  LABEL CLASS: "No"
- MOLECULE: "COc1ccccc1N1CCN(C2=NN=C(c3cccc(Cl)c3)c3ccccc3C2)CC1"
  LABEL CLASS: "No"
- MOLECULE: "NC(=S)N/N=C(/C=C/c1cn(-c2ccccc2)nc1-c1ccc(Cl)cc1)c1cc2ccccc2oc1=O"
  LABEL CLASS: "No"
- MOLECULE: "CN(C)C(=O)c1ccccc1-n1cnc2ccccc2c1=O"
  LABEL CLASS: "No"
- MOLECULE: "NNC(=O)c1sc2nc(-c3cnccn3)cc(-c3cccs3)c2c1N"
  LABEL CLASS: "No"
- MOLECULE: "COc1ccc(-c2nc3cc(Cl)c(Cl)cc3n2CC(=O)N=Nc2c(O)[nH]c3ccccc23)cc1"
  LABEL CLASS: "No"
- MOLECULE: "Cc1ccc(S(=O)(=O)N/N=C/c2cn(-c3ccc(F)cc3)nc2-c2ccc(S(C)(=O)=O)cc2)cc1"
  LABEL CLASS: "No"
- MOLECULE: "N#Cc1c(NC(=O)c2ccc(F)c(Cl)c2)sc2c1CCC(=O)C2"
  LABEL CLASS: "Yes"
- MOLECULE: "COc1ccc(N2C(=O)c3cc(OC)c(OC)cc3NC2SCc2ccccc2)cc1 (stereo not drawn)"
  LABEL CLASS: "No"
- MOLECULE: "O=C(COc1ccc(C2SCC(=O)N2c2ccc(F)cc2)cc1)c1ccccc1 (stereo not drawn)"
  LABEL CLASS: "No"
- MOLECULE: "C#C[C@]1(O)CC[C@H]2[C@@H]3CC=C4c5sc(Nc6cc(OC)ccc6OC)nc5CC[C@]4(C)[C@H]3CC[C@@]21C"
  LABEL CLASS: "No"
- MOLECULE: "O=C(Cn1cc(CN2C(=O)c3ccc([N+](=O)[O-])cc3C2=O)nn1)Nc1ccccc1Br"
  LABEL CLASS: "No"
- MOLECULE: "CCOC(=O)c1nn(-c2ccc(C)cc2)c(=O)c2c(N)c(C#N)c(-c3ccc(OC)cc3)cc12"
  LABEL CLASS: "No"
- MOLECULE: "C#CCOc1ccc(/C=N/Nc2nc(-c3cc4cc(Br)cc(Br)c4oc3=O)cs2)cc1"
  LABEL CLASS: "No"
- MOLECULE: "O=C1CSC(=O)N1Cc1cc2ccccc2nc1Cl"
  LABEL CLASS: "No"
- MOLECULE: "COC[C@]12CC[C@@H](C)[C@H](C)[C@H]1C1=CC[C@@H]3[C@@]4(C)CCCNC(C)(C)[C@@H]4CC[C@@]3(C)[C@]1(C)CC2"
  LABEL CLASS: "No"
- MOLECULE: "C=CCn1c(SCC(=O)Nc2cccc(C(=O)/C=C/c3ccc(C)cc3)c2)nc2ccccc2c1=O"
  LABEL CLASS: "No"
- MOLECULE: "O=c1oc2ccc(-c3ccc(F)cc3F)cc2c(=O)n1-c1ccc(F)c(F)c1"
  LABEL CLASS: "Yes"
- MOLECULE: "Nc1nc(-c2cccc([N+](=O)[O-])c2)c(N=Nc2cccc(Cl)c2)s1"
  LABEL CLASS: "No"
- MOLECULE: "N#C/C(=C\\c1ccc(-c2ccc(F)cc2)o1)C(=O)Nc1ncc(Cc2ccc(Cl)cc2Cl)s1"
  LABEL CLASS: "Yes"
- MOLECULE: "NS(=O)(=O)c1ccc(Nc2nc(N/N=C/c3ccc(F)cc3)nc(Nc3ccccc3)n2)cc1"
  LABEL CLASS: "No"

----------
- Test system: OVCAR-8 ovarian
- MEASUREMENT DESCRIPTION: NCI-60 one-dose screen, 48 h (100 = growth as untreated, 0 = no growth, -100 = all killed)
- CONDITION NOTES: 10 µM unless noted
About 83,000 compounds went through this panel and 20% of them were active in at least one assay; those are over-represented in the sample as a whole.
Quick reference for growth among some molecules

- MOLECULE: "Nc1ccc(-c2nnc(SCc3ccc(O)c4ncccc34)o2)cc1"
  growth (%): 8.94
- MOLECULE: "Oc1ccc(-c2nnc(SCc3ccc(O)c4ncccc34)n2-c2ccccc2)cc1"
  growth (%): 10.1
- MOLECULE: "Oc1ccccc1/C=N/Nc1nc(N/N=C/c2ccccc2O)nc(N2CCOCC2)n1"
  growth (%): 12.7
- MOLECULE: "Cn1ccnc1C(=O)/C=C/c1ccc(C(=O)Nc2ccc(NC(=O)CCNC(=O)c3csc(Br)n3)cc2)cc1"
  growth (%): 63.9
- MOLECULE: "O=c1oc2ccc(-c3ccc(F)cc3F)cc2c(=O)n1-c1cccc(C(F)(F)F)c1"
  growth (%): 12.4
- MOLECULE: "CN1C(=O)/C(=C/C=C/c2ccco2)SC1=S"
  growth (%): 71.1
- MOLECULE: "COc1ccc([C@H]2[C@H](O)C(=O)N2c2cc(OC)c(OC)c(OC)c2)cc1"
  growth (%): 2.46
- MOLECULE: "COc1cc(C2=NN(C(C)=O)C(c3ccc(N4CCOCC4)cc3)C2)cc(OC)c1OC (centres undefined)"
  growth (%): 101
- MOLECULE: "COc1ccc2c(C3=C(c4cn(C)c5ccccc45)C(=O)NC3=O)coc2c1"
  growth (%): 41
- MOLECULE: "O=C1c2c(c3c4cccnc4[nH]c3c3ccc4ccccc4c23)C(=O)N1CCN1CCCCC1"
  growth (%): 49.5
- MOLECULE: "CCOC(=O)c1c(NC(=O)c2cccc(C(F)(F)F)c2)sc2c(CN3CCN(C)CC3)c(O)ccc12"
  growth (%): -35.2
- MOLECULE: "CCCCCCNC(=O)Oc1ccc(/C(=C(/C)c2ccc(Cl)cc2)c2ccc(OCCN3CCCC3)cc2)cc1"
  growth (%): 56.8
- MOLECULE: "CC(=O)Nc1cccc(-n2cnc3cc(-c4ccc(O)cc4)ccc32)c1"
  growth (%): 28.8
- MOLECULE: "COc1ccc(CCN2C(=O)CSC2=S)cc1OC"
  growth (%): 98.6
- MOLECULE: "COc1ccc(-c2nc(SCCC(C)C)nc(N/N=C\\c3ccc(O)cc3)c2C#N)cc1"
  growth (%): 47.6
- MOLECULE: "Cc1ccc(NC(=O)N[C@@H](Cc2cc(F)cc(F)c2)C(=O)NC2C(=O)N3CCC[C@H]3C(=O)N3CCCC[C@H]3C(=O)N[C@@H](C)C(=O)N3C[C@H](C)C[C@H]3C(=O)O[C@H]2C)c(F)c1 (some centres undefined)"
  growth (%): 21.6
- MOLECULE: "COC(=O)c1nc(-c2ccc(C)cc2)oc1S(=O)(=O)N1CCN(c2oc(-c3ccccc3)nc2C#N)CC1"
  growth (%): 102
- MOLECULE: "C#CCOc1ccc(/C=N/Nc2nc(-c3cc4cc(Br)cc(Br)c4oc3=O)cs2)cc1"
  growth (%): 100
- MOLECULE: "C/C(=C(/c1ccc(O)cc1)c1ccc(OCCN(C)C)cc1)c1ccc(Cl)cc1"
  growth (%): 62.1
